assay: RP-HPLC retention on Purosphere RP-18e (ODS) column, buffer pH 7.4-acetonitrile; format: physicochemical; details: slope of Soczewiński-Wachtmeister equation, acetonitrile φ 0.3–0.6
reported-metric: s ODS

- smiles-code: "CCOc1ccc(N2CCn3c2nnc(Cc2ccccc2Cl)c3=O)cc1"
  val: 5.02
- smiles-code: "CCOc1ccc(N2CCn3c2nnc(-c2ccccc2)c3=O)cc1"
  val: 5.33
- smiles-code: "CCc1nnc2n(c1=O)CCN2c1ccc(Cl)cc1"
  val: 3.56
- smiles-code: "Cc1ccc(N2CCn3c2nnc(CCc2ccccc2)c3=O)cc1"
  val: 5.44
- smiles-code: "O=c1c(CCc2ccccc2)nnc2n1CCN2c1ccc(Cl)c(Cl)c1"
  val: 6.66
- smiles-code: "CCc1nnc2n(c1=O)CCN2c1ccc(C)cc1"
  val: 3.12

I: O=c1c(Cc2ccc(Cl)cc2)nnc2n1CCN2c1ccc(Cl)cc1
II: CCc1nnc2n(c1=O)CCN2c1ccccc1
Problem: Would you mind telling me which has the lower recorded s ODS between I and II ? // return label of chosen record
Result: II
(II: 2.70, I: 6.45)
